# subject of test: dipeptidyl-peptidase IV (DPP-IV) (Homo sapiens, UniProt P27487)
# Construct: purchased Creative BioMart (Shirley, NY, USA); host or cells: HEK293 human cells
# Sequence (P27487 whole entry): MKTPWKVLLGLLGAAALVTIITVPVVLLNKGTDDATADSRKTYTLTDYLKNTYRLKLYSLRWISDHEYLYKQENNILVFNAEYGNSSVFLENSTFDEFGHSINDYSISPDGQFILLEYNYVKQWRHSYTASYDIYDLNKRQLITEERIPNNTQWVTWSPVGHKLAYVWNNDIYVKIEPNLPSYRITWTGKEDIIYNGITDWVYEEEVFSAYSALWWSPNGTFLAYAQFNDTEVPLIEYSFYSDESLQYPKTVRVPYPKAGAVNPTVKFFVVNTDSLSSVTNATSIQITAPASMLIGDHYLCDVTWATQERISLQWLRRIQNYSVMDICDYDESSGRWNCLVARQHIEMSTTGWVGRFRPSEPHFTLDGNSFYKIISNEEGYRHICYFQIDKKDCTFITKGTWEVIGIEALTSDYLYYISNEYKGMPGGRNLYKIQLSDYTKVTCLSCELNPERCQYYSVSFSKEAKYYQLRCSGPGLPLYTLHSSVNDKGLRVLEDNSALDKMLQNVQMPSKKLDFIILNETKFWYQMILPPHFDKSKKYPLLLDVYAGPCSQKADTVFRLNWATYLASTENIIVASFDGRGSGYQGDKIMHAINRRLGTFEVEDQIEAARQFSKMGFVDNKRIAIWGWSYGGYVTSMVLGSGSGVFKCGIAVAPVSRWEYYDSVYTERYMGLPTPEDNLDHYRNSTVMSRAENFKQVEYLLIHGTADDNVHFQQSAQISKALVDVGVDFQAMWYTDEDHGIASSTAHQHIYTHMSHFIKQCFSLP
# assay info: DPP-IV inhibition assay on SPOT-synthesized peptides (cleaved from cellulose membrane)
# Type: biochemical
# measurement context: peptides cleaved from cellulose membrane, concentration not known (semi-quantitative); averages of four determinations from two experiments
# Description: Recombinant human dipeptidyl-peptidase IV (DPP-IV, EC 3.4.14.5, expressed in HEK293 human cells, >95% purity, activity >5500 pmoles Gly–Pro–7-amido-4-methylcoumarin/min/µg) was purchased from Creative BioMart (Shirley, NY, USA) while polyclonal goat DPP-IV antibody and polyclonal donkey anti-goat secondary antibody conjugated to horseradish peroxidase were obtained from R&D Systems (Minneapolis, MN, USA). […]
reported endpoint: Percent inhibition of DPP-IV activity, SPOT-synthesized deca-peptides (%)
Quick note: give the figure in %, leave out the unit.

# example entries with known answers
| substance | subject of test | meas value |
| --- | --- | --- |
| J5: α-lactalbumin-derived deca-peptide, residues 104–113 (Table S1) (WLAHKALCSE; UniProt P00711 123-132, looked up, fragment) | dipeptidyl-peptidase IV (DPP-IV) (Homo sapiens, UniProt P27487) | 16 |
| C3: α-lactalbumin-derived deca-peptide, residues 25–34 (Table S1) (ELICTMFHTS; UniProt P00709 44-53, looked up, fragment) | dipeptidyl-peptidase IV (DPP-IV) (Homo sapiens, UniProt P27487) | 18 |

Could you now look at the following substance, please?
Q: Lookup: Percent inhibition of DPP-IV activity, SPOT-synthesized deca-peptides / dipeptidyl-peptidase IV (DPP-IV) (Homo sapiens, UniProt P27487) / GLFQINNKIW [E7]
Result: 9

---

# subject of test: dipeptidyl-peptidase IV (DPP-IV) (Homo sapiens)
# Construct: purchased Creative BioMart (Shirley, NY, USA); host or cells: HEK293 human cells
# assay info: DPP-IV inhibition assay on SPOT-synthesized peptides (cleaved from cellulose membrane)
# Assay type: biochemical
# measurement context: peptides cleaved from cellulose membrane, concentration not known (semi-quantitative); averages of four determinations from two experiments
# Source text: Recombinant human dipeptidyl-peptidase IV (DPP-IV, EC 3.4.14.5, expressed in HEK293 human cells, >95% purity, activity >5500 pmoles Gly–Pro–7-amido-4-methylcoumarin/min/µg) was purchased from Creative BioMart (Shirley, NY, USA) while polyclonal goat DPP-IV antibody and polyclonal donkey anti-goat secondary antibody conjugated to horseradish peroxidase were obtained from R&D Systems (Minneapolis, MN, USA). […]
Ends that are not written are not given here.
reported endpoint: Percent inhibition of DPP-IV activity, SPOT-synthesized deca-peptides
Kindly format the answer as number then unit.

| substance | meas value |
| --- | --- |
| IPAVFKIDAL [K7, IPAVFKIDAL] | 25% |
| B4: α-lactalbumin-derived deca-peptide, residues 15–24 (Table S1) (LKGYGGVSLP; UniProt P00711 34-43, looked up, fragment) | 13% |
| AIVQNNDSTE [D7] | 11% |
| I8: α-lactalbumin-derived deca-peptide, residues 96–105 (Table S1) (LDKVGINYWL; UniProt P00711 115-124, looked up, fragment) | 16% |

Q: Which Percent inhibition of DPP-IV activity, SPOT-synthesized deca-peptides is reported for this substance? TEYGLFQINN [E4]
Result: 9%

---

# subject of test: dipeptidyl-peptidase IV (DPP-IV) (Homo sapiens)
# Construct: purchased Creative BioMart (Shirley, NY, USA); host or cells: HEK293 human cells
# assay info: DPP-IV inhibition assay on SPOT-synthesized peptides (cleaved from cellulose membrane)
# Assay type: biochemical
# measurement context: peptides cleaved from cellulose membrane, concentration not known (semi-quantitative); averages of four determinations from two experiments
reported endpoint: Percent inhibition of DPP-IV activity, SPOT-synthesized deca-peptides (%)
Quick note: give the figure in %, leave out the unit.

| substance | meas value |
| --- | --- |
| H2: α-lactalbumin-derived deca-peptide, residues 79–88 (Table S1) (KFLDDDLTDD; UniProt P00711 98-107, looked up, fragment) | 18 |
| J4: α-lactalbumin-derived deca-peptide, residues 103–112 (Table S1) (YWLAHKALCS; UniProt P00711 122-131, looked up, fragment) | 20 |
| A4: α-lactalbumin-derived deca-peptide, residues 4–13 (Table S1) (TKCELSQLLK; UniProt P00709 23-32, looked up, fragment) | 20 |
| J3: α-lactalbumin-derived deca-peptide, residues 102–111 (Table S1) (DYWLAHKALC; UniProt P00709 121-130, looked up, fragment) | 15 |

Q: Which Percent inhibition of DPP-IV activity, SPOT-synthesized deca-peptides is reported for this substance? H4: α-lactalbumin-derived deca-peptide, residues 81–90 (Table S1) (LDDDLTDDIM; UniProt P00711 100-109, looked up, fragment)
Result: 21

---

Listing of entries alongside the reported Percent inhibition of DPP-IV activity, SPOT-synthesized deca-peptides.
# subject of test: dipeptidyl-peptidase IV (DPP-IV) (Homo sapiens)
# Construct: purchased Creative BioMart (Shirley, NY, USA); host or cells: HEK293 human cells
# assay info: DPP-IV inhibition assay on SPOT-synthesized peptides (cleaved from cellulose membrane)
# Type: biochemical
# measurement context: peptides cleaved from cellulose membrane, concentration not known (semi-quantitative); averages of four determinations from two experiments
Quick note: give the figure in %, leave out the unit.

| substance | quantity unit | meas value |
| --- | --- | --- |
| C7: α-lactalbumin-derived deca-peptide, residues 29–38 (Table S1) (TTFHTSGYDT; UniProt P00711 48-57, looked up, fragment) | % | 5 |
| A9: α-lactalbumin-derived deca-peptide, residues 9–18 (Table S1) (FRELKDLKGY; UniProt P00711 28-37, looked up, fragment) | % | 17 |

Could you now look at the following substance, please?
Q: Which Percent inhibition of DPP-IV activity, SPOT-synthesized deca-peptides is reported for this substance? B5: α-lactalbumin-derived deca-peptide, residues 16–25 (Table S1) (KGYGGVSLPE; UniProt P00711 35-44, looked up, fragment)
Result: 11

---

# subject of test: dipeptidyl-peptidase IV (DPP-IV) (Homo sapiens, UniProt P27487)
# Construct: purchased Creative BioMart (Shirley, NY, USA); host or cells: HEK293 human cells
# assay info: DPP-IV inhibition assay on traditionally-synthesized peptides
# Format: biochemical
# measurement context: 250 µM of peptides (final assay concentration); averages of three determinations
Ends that are not written are not given here.
Listing of entries alongside the reported inhibition at 250 µM.
Kindly format the answer as number then unit.

| seq string | inhibition at 250 µM |
| --- | --- |
| GYGGVSLPEW [B6, GYGGVSLPEW] | 8% |
| YPSKPDNPGE [K11, YPSKPDNPGE, reference compound] | 25% |
| DTQAIVQNND [D4, DTQAIVQNND] | 2% |

Q: Which inhibition at 250 µM is reported for this sequence? EQLTKCEVFR [A1, EQLTKCEVFR]
Result: 10%

Q: Which inhibition at 250 µM is reported for this sequence? LKPTPEGDLE [K6, LKPTPEGDLE]
Result: 24%

Q: Which inhibition at 250 µM is reported for this sequence? LAHKALCSEK [J6, LAHKALCSEK]
Result: 31%

Q: Which inhibition at 250 µM is reported for this sequence? VFRELKDLKG [A8, VFRELKDLKG]
Result: 3%

Q: Which inhibition at 250 µM is reported for this sequence? TSGYDTQAIV [C11, TSGYDTQAIV]
Result: -1%

Q: Which inhibition at 250 µM is reported for this sequence? CKDDQNPHSS [F6, CKDDQNPHSS]
Result: -3%

Q: Which inhibition at 250 µM is reported for this sequence? FHTSGYDTQA [C9, FHTSGYDTQA]
Result: 2%

Q: Which inhibition at 250 µM is reported for this sequence? LCSEKLDQWL [J11, LCSEKLDQWL]
Result: 25%

Q: Which inhibition at 250 µM is reported for this sequence? IPAVFKIDAL [K7, IPAVFKIDAL]
Result: 48%

Q: Which inhibition at 250 µM is reported for this sequence? QNPHSSNICN [F10, QNPHSSNICN]
Result: 2%

Q: Which inhibition at 250 µM is reported for this sequence? LPEWVCTTFH [C1, LPEWVCTTFH]
Result: 26%

---

# subject of test: dipeptidyl-peptidase IV (DPP-IV) (Homo sapiens, UniProt P27487)
# Construct: purchased Creative BioMart (Shirley, NY, USA); host or cells: HEK293 human cells
# assay info: DPP-IV inhibition assay on SPOT-synthesized peptides (cleaved from cellulose membrane)
# Assay type: biochemical
# measurement context: peptides cleaved from cellulose membrane, concentration not known (semi-quantitative); averages of four determinations from two experiments
Ends that are not written are not given here.
reported endpoint: Percent inhibition of DPP-IV activity, SPOT-synthesized deca-peptides
Kindly format the answer as number then unit.

# example entries with known answers
| substance | meas value |
| --- | --- |
| NKIWCKDDQN [F2] | 17% |
| G7: α-lactalbumin-derived deca-peptide, residues 73–82 (Table S1) (CNISCDKFLD; UniProt P00711 92-101, looked up, fragment) | 17% |
| SCDKFLDDDL [G10] | 21% |

Q: Which Percent inhibition of DPP-IV activity, SPOT-synthesized deca-peptides is reported for this substance? VQNNDSTEYG [D9]
Result: 13%

Q: Which Percent inhibition of DPP-IV activity, SPOT-synthesized deca-peptides is reported for this substance? H8: α-lactalbumin-derived deca-peptide, residues 85–94 (Table S1) (LTDDIMCVKK; UniProt P00711 104-113, looked up, fragment)
Result: 20%
